Let's look at some molecules and their measured pKd.
target: A2BAR (Homo sapiens); experiment: Intracellular calcium mobilization in HEK293 cells overexpressing the A2BAR
Sequence (P29275 whole entry): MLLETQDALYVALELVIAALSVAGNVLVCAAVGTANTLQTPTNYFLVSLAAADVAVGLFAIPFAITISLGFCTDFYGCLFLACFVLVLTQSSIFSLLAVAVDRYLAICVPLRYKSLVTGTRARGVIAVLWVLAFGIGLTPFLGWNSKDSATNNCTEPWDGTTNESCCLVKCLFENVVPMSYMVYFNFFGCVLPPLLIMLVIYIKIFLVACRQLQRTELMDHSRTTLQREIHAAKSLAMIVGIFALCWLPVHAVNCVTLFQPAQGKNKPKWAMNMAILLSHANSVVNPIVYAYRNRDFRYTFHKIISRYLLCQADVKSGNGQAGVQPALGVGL
Kindly note that pKd refers to -log10 of the concentration in mol/L and answer with the value alone.

Below, each entry is followed by its recorded pKd result.
{"SMILES REPR": "N#Cc1c(N)nc(SCC(N)=O)c(C#N)c1-c1ccc(OCC2CC2)cc1", "pKd": 5.78}
{"SMILES REPR": "OC[C@H]1O[C@@H](n2cnc3c(Nc4ccc(I)cc4)ncnc32)[C@H](O)[C@@H]1O", "pKd": 4.07}

Moving on to another molecule below.
Entry under test: Nc1nc(OCCc2c[nH]c3cc(Br)ccc23)nc2c1ncn2[C@@H]1O[C@H](CO)[C@@H](O)[C@H]1O . Its pKd was 5.15

Hey, just so you know, these numbers are from paper PMC4128710.
